// reported GI50 per item
- Test system: T-Rex 293 cell line SC3 cells lacking increased expression of androgen receptor protein
- method-summary: Cellular growth inhibition, T-Rex 293 SC3 cells without doxycycline, CellTiter-Glo
- Format: cell-based
- condition-details: 72 h, T-Rex 293 SC3 cells not exposed to doxycycline, CellTiter-Glo 2.0

Illustrative cases are given below, each with its answer.
compound | GI50
Cc1sc2c(c1C)C(c1ccc(-n3cc(C4CCN(c5ncc(C(=O)N[C@H]6C(C)(C)[C@H](Oc7ccc(C#N)c(Cl)c7)C6(C)C)cn5)CC4)nn3)cc1)=N[C@@H](Cc1ncco1)c1nnc(C)n1-2 | 500 to 1500 nM
Cc1sc2c(c1C)C(c1ccc(O[C@@H]3CCC4(CCN(c5ncc(C(=O)N[C@H]6C(C)(C)[C@H](Oc7ccc(C#N)c(Cl)c7)C6(C)C)cn5)CC4)C3)cc1)=N[C@@H](Cc1ncco1)c1nnc(C)n1-2 | < 500 nM
Cc1sc2c(c1C)C(c1ccc([C@H]3CCN(C(=O)[C@H]4CCCN(c5ncc(C(=O)N[C@H]6C(C)(C)[C@H](Oc7ccc(C#N)c(Cl)c7)C6(C)C)cn5)C4)C3)cc1)=N[C@@H](Cc1ncco1)c1nnc(C)n1-2 | 500 to 1500 nM
Cc1sc2c(c1C)C(c1ccc(CC3CC4(CCCN(c5ncc(C(=O)N[C@H]6C(C)(C)[C@H](Oc7ccc(C#N)c(Cl)c7)C6(C)C)cn5)C4)C3)cc1)=N[C@@H](C)c1nnc(C)n1-2 | > 3000 nM
Cc1sc2c(c1C)C(c1ccc(O[C@@H]3CCOC34CN(c3ncc(C(=O)N[C@H]5C(C)(C)[C@H](Oc6ccc(C#N)c(Cl)c6)C5(C)C)cn3)C4)cc1)=N[C@@H](Cc1ncco1)c1nnc(C)n1-2 | < 500 nM

Proceed to the following item.
[Q] Query GI50 for `Cc1sc2c(c1C)C(c1ccc([C@@H]3CCN(C(=O)[C@@H]4CCCN(c5ncc(C(=O)N[C@H]6C(C)(C)[C@H](Oc7ccc(C#N)c(Cl)c7)C6(C)C)cn5)C4)C3)cc1)=N[C@@H](Cc1ncco1)c1nnc(C)n1-2`
[A] > 3000 nM

###

In this section, each of the compounds is paired with its reported GI50.
- Test system: T-Rex 293 cell line SC3 cells lacking increased expression of androgen receptor protein
- method-summary: Cellular growth inhibition, T-Rex 293 SC3 cells without doxycycline, CellTiter-Glo
- Assay type: cell-based
- condition-details: 72 h, T-Rex 293 SC3 cells not exposed to doxycycline, CellTiter-Glo 2.0

compound | target-under-test | GI50
Cc1sc2c(c1C)C(c1ccc(C(=O)N3CCC[C@@H](C(=O)c4ncc(C(=O)N[C@H]5C(C)(C)[C@H](Oc6ccc(C#N)c(Cl)c6)C5(C)C)cn4)C3)cc1)=N[C@H](Cc1ncco1)c1nnc(C)n1-2 | T-Rex 293 cell line SC3 cells lacking increased expression of androgen receptor protein | > 3 µM
Cc1sc2c(c1C)C(c1ccc(-c3cn(C4CCN(c5ncc(C(=O)N[C@H]6C(C)(C)[C@H](Oc7ccc(C#N)c(Cl)c7)C6(C)C)cn5)CC4)nn3)cc1)=NC(Cc1ncco1)c1nnc(C)n1-2 (stereo partly drawn) | T-Rex 293 cell line SC3 cells lacking increased expression of androgen receptor protein | < 0.5 µM
Cc1sc2c(c1C)C(c1ccc(C3(N(C)CC4CCN(c5ncc(C(=O)N[C@H]6C(C)(C)[C@H](Oc7ccc(C#N)c(Cl)c7)C6(C)C)cn5)CC4)COC3)cc1)=N[C@@H](C)c1nnc(C)n1-2 | T-Rex 293 cell line SC3 cells lacking increased expression of androgen receptor protein | > 3 µM
CCNC(=O)C[C@@H]1N=C(c2ccc(OC3CC(N(C)C4CCN(c5ncc(C(=O)N[C@H]6C(C)(C)[C@H](Oc7ccc(C#N)c(Cl)c7)C6(C)C)cn5)CC4)C3)cc2)c2c(sc(C)c2C)-n2c(C)nnc21 (stereo partly drawn) | T-Rex 293 cell line SC3 cells lacking increased expression of androgen receptor protein | 0.5 to 1.5 µM
Cc1sc2c(c1C)C(c1ccc(Cl)cc1)=N[C@@H](CC(=O)NCCOCCOCCN(C)c1ncc(C(=O)N[C@H]3C(C)(C)[C@H](Oc4ccc(C#N)c(Cl)c4)C3(C)C)cn1)c1nnc(C)n1-2 | T-Rex 293 cell line SC3 cells lacking increased expression of androgen receptor protein | 1.5 to 3 µM
CCNC(=O)C[C@@H]1N=C(c2ccc(OCCCC#Cc3ncc(C(=O)N[C@H]4C(C)(C)[C@H](Oc5ccc(C#N)c(Cl)c5)C4(C)C)cn3)cc2)c2c(sc(C)c2C)-n2c(C)nnc21 | T-Rex 293 cell line SC3 cells lacking increased expression of androgen receptor protein | 0.5 to 1.5 µM

[Q] Given the compound `CCNC(=O)C[C@@H]1N=C(c2ccc(N3CC(N(C)C4CCN(c5ncc(C(=O)N[C@H]6C(C)(C)[C@H](Oc7ccc(C#N)c(Cl)c7)C6(C)C)cn5)CC4)C3)cc2)c2c(sc(C)c2C)-n2c(C)nnc21` , write its reported GI50.
[A] 0.5 to 1.5 µM

[Q] Supply reported GI50 belonging to this compound: `Cc1noc2c1-c1ccccc1C(c1ccc(OC3CC4(CCN(c5ncc(C(=O)N[C@H]6C(C)(C)[C@H](Oc7ccc(C#N)c(Cl)c7)C6(C)C)cn5)CC4)C3)cc1)=N[C@H]2Cc1ncco1`
[A] > 3 µM

[Q] Please supply the value of reported GI50 for the item `CC[C@@H]1N=C(c2ccc(OC3CC4(C3)CC3(CCN(c5ncc(C(=O)N[C@H]6C(C)(C)[C@H](Oc7ccc(C#N)c(Cl)c7)C6(C)C)cn5)CC3)C4)cc2)c2c(sc(C)c2C)-n2c(C)nnc21`
[A] > 3 µM
